- Test system: SF-268
- assayMethodText: NCI tumour cell line growth inhibition, 48 h
Calls of active or inactive are those of the source. No stated cut-off is given here; in the data, active = GI50 up to about 1.1 µM and inactive = higher.
Outcomes: 1 for active, 0 for inactive

compound	classAssignment
CC1(C)CC(=O)C(CC2C(=O)CCCC2=O)C(=O)C1	0
CN(C)CC1CCCCCCCCCCCCC(CN(C)C)C1=O (stereo unspecified)	0
CC1(C)N=C(N)N=C(N)N1CCCCc1ccccc1	1
COc1ccc2[nH]c3nnc(N)c-3nc2c1	0
[O-]c1c[n+](-c2ccccc2)no1	0
Cc1cc(S(N)(=O)=O)c(S/C(=N\Nc2ccc([N+](=O)[O-])cc2)c2ccc(Cl)cc2)cc1Cl	0
Cc1c2ccncc2c(C)c2c1[nH]c1ccc(OC(C)C)cc12	0
CNS(=O)(=O)NNS(=O)(=O)c1ccc2ccccc2c1	0
O=C1Nc2ccccc2/C1=N/NC(=S)Nc1ccccc1Cl	1
Cc1cn(CCCCCOC(=O)NC(CCCNC(N)=O)C(=O)O)c(=O)[nH]c1=O (stereo unspecified)	0
FC(F)(F)c1ccc(/N=C/C=C(/Nc2ccc(C(F)(F)F)cc2)c2ccc(Cl)cc2)cc1	0
COC1O[C@@H]2CCN3C(=O)[C@@H](OC(=O)c4ccc([N+](=O)[O-])cc4)[C@H]1C23 (stereo partly specified)	0
Cc1c(O)c(OC2OC(CO)C(O)C(O)C2O)cc2c1C=C[C@@H]1[C@@]2(C)C(=O)C[C@]2(C)[C@@H]([C@@](C)(O)C(=O)CCC(C)(C)O)[C@H](O)C[C@@]12C (stereo partly specified)	0
Cc1cc(N(CCC#N)CCC#N)ccc1C(=N/NC(=O)c1cc(Cl)ccc1O)/N=N/c1cccc(Cl)c1	0
O=C1Nc2ccccc2/C1=C/c1ccccc1	0
COCOc1ccc(Cn2c(=O)n(C)c(=O)c3c2ncn3C)cc1[N+](=O)[O-]	0
Nc1cc2c3c(cccc3c1)C(=O)N(CCN1CCN(CCN3C(=O)c4cccc5cc(N)cc(c45)C3=O)CC1)C2=O	0
Nc1nn2c(=O)c3ccccc3nc2s1	0
COc1cccc(-c2cc(=O)c3cc(C)c(C)c(C(=O)O)c3o2)c1	0
COc1ccc(/C=C2/NC(=S)N=C2Cl)cc1	0
Nc1c(C(=O)NC23CC4CC(CC(C4)C2)C3)[n+]([O-])c2ccccc2[n+]1[O-]	0
